Molecular target: NAD-dependent protein deacetylase sirtuin-2 (Homo sapiens, UniProt Q8IXJ6)
Sequence (Q8IXJ6 whole entry): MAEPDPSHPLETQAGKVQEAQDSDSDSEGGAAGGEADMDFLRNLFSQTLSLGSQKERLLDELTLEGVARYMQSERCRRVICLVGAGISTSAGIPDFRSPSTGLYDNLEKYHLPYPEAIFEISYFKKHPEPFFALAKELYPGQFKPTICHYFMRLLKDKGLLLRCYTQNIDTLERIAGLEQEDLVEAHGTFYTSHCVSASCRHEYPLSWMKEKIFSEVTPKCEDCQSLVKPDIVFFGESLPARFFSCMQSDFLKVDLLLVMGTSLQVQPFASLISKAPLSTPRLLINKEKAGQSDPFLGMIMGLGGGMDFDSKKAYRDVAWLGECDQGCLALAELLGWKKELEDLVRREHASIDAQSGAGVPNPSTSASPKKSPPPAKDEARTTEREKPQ
measured-quantity: pIC50
Answers are plain numbers, as −log10 of the molar value.

# input molecule: "O=C1NC(=S)NC(=O)C1=Cc1cccc2ccccc12" ; wanted: its pIC50
5.00
